Tested on: prickly sida
experiment.notes: Test Example 1: foliage treatment, upland pot test
Type: in vivo, Sida spinosa L.
experimental.conditions: active ingredient 1000 g/ha, observed 18th to 23rd day, 0 = non-treated, 100 = complete kill
measured.parameter: Growth controlling degree (%) Prickly sida
Entry format: amount then unit.

Guide cases for Growth controlling degree (%) Prickly sida, answers given:
{"compound": "CC(C)C(c1cnccc1C(F)(F)F)N(C)C(=O)Cc1ccc(Br)cc1 (stereo not drawn)", "value.measured": "90%"}
{"compound": "CC(C)C(c1cnccc1C(F)(F)F)N(C)C(=O)Cc1ccc(F)cc1F (stereo not drawn)", "value.measured": "90%"}
{"compound": "CC(C)C(c1cnccc1C(F)(F)F)N(C)C(=O)Cc1cccc(F)c1F (stereo not drawn)", "value.measured": "80%"}
{"compound": "CC(C)C(c1cnccc1C(F)(F)F)N(C)C(=O)Cc1ccc(I)cc1 (stereo not drawn)", "value.measured": "90%"}
{"compound": "CC(C)C(c1cnccc1C(F)(F)F)N(C)C(=O)C=Cc1cccc2ccccc12 (stereo not drawn)", "value.measured": "90%"}

**Query** Endpoint output: Growth controlling degree (%) Prickly sida of CCC(=O)N(C)C(c1cnccc1C(F)(F)F)c1cccc2ccccc12 (stereo not drawn) . Value?
**Result** 80%

**Query** Another compound to look at: CC(C)C(c1cnccc1C(F)(F)F)N(C)C(=O)Cc1cccc(Br)c1 (stereo not drawn)
**Result** 80%

**Query** Entry to check: CCN(C(=O)Cc1cccc(C(F)(F)F)c1)C(c1cnccc1C(F)(F)F)C(C)C (stereo not drawn)
**Result** 80%

**Query** Field entry: CC(C)C(c1cnccc1C(F)(F)F)N(C)C(=O)Cc1ccccc1Cl (stereo not drawn)
**Result** 80%

----------
System: japanese bulrush
experiment.notes: Test Example 3: paddy pot test, application under submerged conditions
Type: in vivo, Scirpus juncoides
experimental.conditions: active ingredient 250 g/ha; submerged application at 0.5 leaf stage; visually observed 14 days after application; 0 = non-treated, 100 = complete kill
measured.parameter: Growth controlling degree (%) Japanese bulrush
Numbers only here, please. The scale is %.

Sample records with Growth controlling degree (%) Japanese bulrush:
{"compound": "CC(C)C(c1cnccc1C(F)(F)F)N(C)C(=O)C(F)(F)c1ccccc1 (stereo not drawn) [I-143]", "value.measured": 98}
{"compound": "CC(C)C(c1cnccc1C(F)(F)F)N(C)C(=O)Cc1ccc(F)c(F)c1 (stereo not drawn) [I-60]", "value.measured": 70}
{"compound": "CC(C)C(c1cnccc1C(F)(F)F)N(C)C(=O)Cc1ccc(C#N)cc1 (racemic) [I-114]", "value.measured": 95}
{"compound": "CC(C)C(=O)N(C)C(c1cnccc1C(F)(F)F)C(C)C (stereo not drawn) [I-198]", "value.measured": 100}
{"compound": "Cc1ccc(OC(C)C(=O)N(C)C(c2cnccc2C(F)(F)F)C(C)C)cc1 (mixture of isomers) [I-131]", "value.measured": 95}
{"compound": "CC(C)C(c1cnccc1C(F)(F)F)N(C)C(=O)Cc1ccc(C(F)(F)F)cc1 (stereo not drawn) [I-31]", "value.measured": 95}
{"compound": "CC(C)C(c1cnccc1Cl)N(C)C(=O)Cc1ccccc1Cl (stereo not drawn) [Compound I-81]", "value.measured": 95}
{"compound": "CCC(CC)C(c1cnccc1C(F)(F)F)N(C)C(=O)COc1ccccc1 (stereo not drawn) [I-263]", "value.measured": 90}

Okay, next one:
**Query** I would be grateful if you could share the reported Growth controlling degree (%) Japanese bulrush for CC(C)C(c1cnccc1C(F)(F)F)N(C)C(=O)C(Br)C(C)(C)C (stereo not drawn) [I-196] .
**Result** 100
